- target_under_test: trkA receptor (Rattus norvegicus)
- Construct: from tissue; host or cells: Wistar female rat (SLC), skin of the back, in vivo
- Sequence (P35739 33-799): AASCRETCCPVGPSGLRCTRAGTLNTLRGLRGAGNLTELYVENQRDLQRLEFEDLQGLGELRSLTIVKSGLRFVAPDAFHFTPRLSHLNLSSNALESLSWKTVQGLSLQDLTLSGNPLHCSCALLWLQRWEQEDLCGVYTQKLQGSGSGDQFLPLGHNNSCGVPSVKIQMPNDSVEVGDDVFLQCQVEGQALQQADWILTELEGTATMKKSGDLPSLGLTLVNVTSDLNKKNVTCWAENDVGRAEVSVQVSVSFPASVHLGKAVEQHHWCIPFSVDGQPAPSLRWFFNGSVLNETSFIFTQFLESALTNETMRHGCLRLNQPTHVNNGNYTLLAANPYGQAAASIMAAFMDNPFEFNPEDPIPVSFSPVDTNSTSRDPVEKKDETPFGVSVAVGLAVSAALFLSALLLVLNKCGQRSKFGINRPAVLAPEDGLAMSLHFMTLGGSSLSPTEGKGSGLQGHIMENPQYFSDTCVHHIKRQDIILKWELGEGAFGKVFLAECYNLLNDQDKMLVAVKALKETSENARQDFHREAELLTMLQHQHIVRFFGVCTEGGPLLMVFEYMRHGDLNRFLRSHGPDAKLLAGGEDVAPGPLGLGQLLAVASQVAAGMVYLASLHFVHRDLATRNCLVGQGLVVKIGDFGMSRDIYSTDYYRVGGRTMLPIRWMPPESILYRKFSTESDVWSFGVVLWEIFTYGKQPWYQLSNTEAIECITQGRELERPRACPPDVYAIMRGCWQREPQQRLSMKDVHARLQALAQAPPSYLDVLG
- assay_remarks: Inhibitory activity on enhanced vascular permeability caused by NGF in rat (Evans blue)
- Format: in vivo
- assay_context: Wistar female rat, 10 mg/kg oral, NGF intracutaneous 60 min after administration, vehicle group set at 100%
measurement_kind: Inhibition rate (%)

NC(=O)CN1CCN(c2ccc(F)cc2NC(=O)c2coc(C3CCOCC3)n2)CC1 ... 95
COCCN(C)c1nc(C(=O)Nc2cccnc2N2CCN(CC(N)=O)CC2)cs1 ... 92
COCCN(C)c1nc(C(=O)Nc2cccnc2N2CCC(C(N)=O)CC2)cs1 ... 88
NC(=O)CN1CCN(c2c(F)cccc2NC(=O)c2csc(N3CCC(O)CC3)n2)CC1 ... 90
